experimental conditions: in 1,4-dioxane, 298.15 K
parameter measured: solubility (mole fraction)

molecule | parameter measured | assay value
CC1(C)COP(=O)(C(Nc2ccccc2)c2ccccc2)OC1 (stereo unspecified) | solubility (mole fraction) | 0.00887

---

experimental conditions: in ethyl acetate, 298.25 K

compound | solubility (mole fraction)
CC1(C)COP(=O)(C(Nc2ccccc2)c2ccccc2)OC1 (stereo unspecified) | 0.00278

---

experimental conditions: in acetonitrile, 293.75 K
parameter measured: solubility (mole fraction)

compound | assay value
CC1(C)COP(=O)(C(Nc2ccccc2)c2ccccc2)OC1 (stereo unspecified) | 0.00887

---

experimental conditions: in 1,2-dichloroethane, 318.15 K

compound | solubility (mole fraction)
CC1(C)COP(=O)(C(Nc2ccccc2)c2ccccc2)OC1 (stereo unspecified) | 0.035

Value source: BigSolDB 2.1
